- TESTED TARGET: ROMK (Kir1.1) channel (Homo sapiens (Human), UniProt P48048)
- Sequence (P48048 whole entry): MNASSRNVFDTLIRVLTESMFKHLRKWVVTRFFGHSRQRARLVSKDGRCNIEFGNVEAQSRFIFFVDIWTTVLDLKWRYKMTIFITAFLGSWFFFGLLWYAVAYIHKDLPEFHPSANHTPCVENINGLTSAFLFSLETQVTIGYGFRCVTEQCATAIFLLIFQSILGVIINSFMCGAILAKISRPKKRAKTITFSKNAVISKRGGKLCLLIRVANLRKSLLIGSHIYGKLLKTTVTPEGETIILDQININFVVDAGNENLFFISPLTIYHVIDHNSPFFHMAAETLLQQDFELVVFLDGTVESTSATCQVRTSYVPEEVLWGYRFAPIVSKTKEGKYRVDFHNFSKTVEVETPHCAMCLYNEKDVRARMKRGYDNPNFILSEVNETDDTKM
- PROTOCOL NOTES: Thallium Flux Assay
MEASURED PROPERTY: pIC50
Kindly note that pIC50 refers to -log10 of the concentration in mol/L and answer with the value alone.

| COMPOUND | MEASURED PROPERTY | EXPERIMENTAL VALUE |
| --- | --- | --- |
| CC1=C(N2CC[C@]3(CC[C@H](NCc4ccc(-n5ncnn5)nn4)CC3)C2=O)COC1=O [Example 74] | pIC50 | 6.68 |

Look up pIC50 for this compound: CC1=C(N2CC[C@]3(CC[C@@](C)(N(C)Cc4ccc(-n5cnnn5)nn4)CC3)C2=O)COC1=O [Example 116] 7.62

Look up pIC50 for this compound: C[C@@H]1C[C@]2(CC[C@H](NCc3ccc4c(c3)Cn3nnnc3-4)CC2)C(=O)N1C1=CC(=O)OC1 [Example 65] 7.72

Entry source: patent US9718808B2
